molecular target: central benzodiazepine receptors (BDZ-Rs); test: 3H-FNZ binding to rat brain synaptosomal membranes (Section 3); details: spinal cord, n=3; read-out: Ki SEM, 3H-FNZ binding
quantity-measured: pKi
One number for each entry, as −log10 of the molar value.

Request: Using known records, supply pKi for O=c1cc(-c2cccc([N+](=O)[O-])c2)oc2ccc(Br)cc12
Result: 7.90

###

biological target: central benzodiazepine receptors (BDZ-Rs); experiment: 3H-FNZ binding to rat brain synaptosomal membranes (Section 3); settings: rat cerebral cortex; read-out: Ki, 3H-FNZ binding
quantity-measured: Ki (nM)
Numbers only, in nM.

Some solved entries appear below for comparison.
smiles-data | Ki / nM
O=c1cc(-c2cccc([N+](=O)[O-])c2)oc2ccc([N+](=O)[O-])cc12 | 20
O=c1cc(-c2ccccc2[N+](=O)[O-])oc2ccc(Br)cc12 | 208
O=c1cc(-c2cccc([N+](=O)[O-])c2)oc2ccccc12 | 250
O=c1cc(-c2cccc([N+](=O)[O-])c2)oc2ccc(Cl)cc12 | 8
O=c1cc(-c2cccc([N+](=O)[O-])c2)oc2ccc(Br)cc12 | 220

For the 2 compounds below, give their Ki values.
1. O=c1cc(-c2cccc([N+](=O)[O-])c2)oc2ccc(F)cc12
2. O=c1cc(-c2ccc([N+](=O)[O-])cc2)oc2ccc(Br)cc12

Result:
1: 170; 2: 220
